B1: Triacylglycerol hydrolase DDHD2, residues 389 to 447; numbered along this chain, O94830 (parent)
chain: TLEEDLKKLQLSEFFDIFEKEKVDKEALALCTDRDLQEIGIPLGPRKKILNYFSTRKNS

Variants of: B1
method_summary: abundance fitness (aPCA) (normalised: wild type 0, dead -1); higher = more abundant; growth selection in yeast, the domain comes from the species named
details: Homo sapiens
reported_endpoint: abundance fitness

[[record]]
variant_key = "T55F"
reported_endpoint = "abundance fitness"
observed_result = -0.482

[[record]]
variant_key = "V23S"
reported_endpoint = "abundance fitness"
observed_result = -0.391

[[record]]
variant_key = "L28H"
reported_endpoint = "abundance fitness"
observed_result = -0.252

[[record]]
variant_key = "D35G"
reported_endpoint = "abundance fitness"
observed_result = -0.182

[[record]]
variant_key = "R34S"
reported_endpoint = "abundance fitness"
observed_result = 0.074

[[record]]
variant_key = "L30M"
reported_endpoint = "abundance fitness"
observed_result = 0.483

[[record]]
variant_key = "D16N"
reported_endpoint = "abundance fitness"
observed_result = -0.025

[[record]]
variant_key = "T55K"
reported_endpoint = "abundance fitness"
observed_result = 0.178

[[record]]
variant_key = "N58W"
reported_endpoint = "abundance fitness"
observed_result = -0.373

[[record]]
variant_key = "L28E"
reported_endpoint = "abundance fitness"
observed_result = -0.129

[[record]]
variant_key = "T32K"
reported_endpoint = "abundance fitness"
observed_result = 0.083

[[record]]
variant_key = "L30Q"
reported_endpoint = "abundance fitness"
observed_result = 0.238

[[record]]
variant_key = "A27M"
reported_endpoint = "abundance fitness"
observed_result = 0.639

[[record]]
variant_key = "E4Q"
reported_endpoint = "abundance fitness"
observed_result = -0.103

[[record]]
variant_key = "V23L"
reported_endpoint = "abundance fitness"
observed_result = 0.354

[[record]]
variant_key = "V23W"
reported_endpoint = "abundance fitness"
observed_result = 0.593

[[record]]
variant_key = "L50R"
reported_endpoint = "abundance fitness"
observed_result = -0.247

[[record]]
variant_key = "T1Y"
reported_endpoint = "abundance fitness"
observed_result = 0.138

[[record]]
variant_key = "V23T"
reported_endpoint = "abundance fitness"
observed_result = -0.231

[[record]]
variant_key = "P42S"
reported_endpoint = "abundance fitness"
observed_result = -0.493

[[record]]
variant_key = "D24L"
reported_endpoint = "abundance fitness"
observed_result = -0.881

[[record]]
variant_key = "T1E"
reported_endpoint = "abundance fitness"
observed_result = -0.042

